Cited source for all entries: patent US20240270821A1

Internalization % TOP by entry:
Target: human GLP1-R (Homo sapiens)
Sequence (P43220 24-463): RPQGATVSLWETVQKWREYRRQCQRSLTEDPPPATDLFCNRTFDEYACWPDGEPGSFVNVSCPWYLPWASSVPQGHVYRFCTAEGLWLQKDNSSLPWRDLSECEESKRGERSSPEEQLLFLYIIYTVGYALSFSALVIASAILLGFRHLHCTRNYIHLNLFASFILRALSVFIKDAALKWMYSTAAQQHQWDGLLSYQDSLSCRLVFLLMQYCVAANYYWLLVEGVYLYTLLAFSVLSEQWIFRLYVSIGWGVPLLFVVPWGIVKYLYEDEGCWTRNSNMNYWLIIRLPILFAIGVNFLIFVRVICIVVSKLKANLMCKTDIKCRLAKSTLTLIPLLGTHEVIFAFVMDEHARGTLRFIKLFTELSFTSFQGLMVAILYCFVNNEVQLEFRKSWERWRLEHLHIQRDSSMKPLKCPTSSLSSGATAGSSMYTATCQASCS
Test: GLP1-R internalization assay in HEK293 cells
Type: cell-based
Settings: normalized to maximum concentration of GLP-1 (100%)
Starred links: 1 amine or outer side, 2 acyl side, 3 side chain; linkers in the order of their positions; H or OH if unused. Non-standard residues stand in square brackets, D forms with d. Groups on a side chain read outwards from the residue. *: point of attachment. C20 diacid = O=C(O)CCCCCCCCCCCCCCCCCCC(=O)*; C18 diacid = O=C(O)CCCCCCCCCCCCCCCCC(=O)*; αMePhe(2-F) = C[C@](N)(Cc1ccccc1F)C(=O)O; γGlu = O=C(O)[C@H](CCC(=O)[*:2])N[*:1]; αMe4Pal = C[C@](N)(Cc1ccncc1)C(=O)O; αMeY = C[C@](N)(Cc1ccc(O)cc1)C(=O)O; 4Pal = N[C@@H](Cc1ccncc1)C(=O)O; αMeL = CC(C)C[C@](C)(N)C(=O)O; Orn = NCCC[C@H](N)C(=O)O; AEEA = NCCOCCOCC(=O)O; Aib = CC(C)(N)C(=O)O

substance	Internalization % TOP [%]
H-Y[Aib]QGT[αMePhe(2-F)]TSD[4Pal]SI[αMeL]LD[Orn]K([γGlu-γGlu-C18 diacid])AQ[αMe4Pal][Orn]FI[dE][αMeY]LIEGGPSSGEPPPETE-NH2 [Example 686]	101
H-Y[Aib]QGTFTSDFS[Orn][αMeL]LDKK([AEEA-AEEA-γGlu-C18 diacid])AQ[Aib]AFIEWLLEGGHSSGAPPPSGE-NH2 [Example 169]	49.4
H-Y[Aib]QGTFTSDYSI[αMeL]LDKK([AEEA-γGlu-C20 diacid])AQRAFIEYLLEGGPSSGEPPPSEG-NH2 [Example 289]	86.5
